Overview of recorded normalized growth for various molecules
assay: chemical genetic growth profiling, strain panel (AID 1159580);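 note: tested at 20 µM; growth read once vehicle control cultures reached saturation at 30 °C; 1 = growth at the plate median or of vehicle wells; lower values mean less growth of the strain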; details: S. cerevisiae deletion strains, growth OD, locus YLR027C, strain aat2, hits give low values
Screen size: about 5,500 compounds; about 2,000 (36%) were called active. Not shown: some 18% with an inconclusive outcome. This is one part of the list.
property: normalized growth

molecule	measured-result
CC(C)(O)[C@@H]1CC[C@](C)([C@H]2[C@@H](O)C[C@@]3(C)C4C[C@H](O[C@@H]5O[C@H](CO)[C@@H](O)[C@H](O)[C@H]5O)C5C(C)(C)[C@@H](O[C@@H]6OC[C@@H](O)[C@H](O)[C@H]6O)CC[C@@]56C[C@@]46CC[C@]23C)O1 (some centres undefined)	1.02 (inactive)
COc1cc2c3cc1Oc1cc(ccc1O)C[C@@H]1c4c(cc(OC)c(O)c4Oc4ccc(cc4)C[C@@H]3N(C)CC2)CC[N+]1(C)C	1.02 (inactive)
[N-]=[N+]=CC(=O)OCC(N)C(=O)O (centres undefined)	1.01 (inactive)
O=c1[nH]c2cc(Cl)c(Cl)cc2[nH]c1=O	0.957 (inactive)
Nc1nnc(-c2cccc(Cl)c2Cl)c(N)n1	1.03 (inactive)
CN(N=O)C(=O)N[C@@H]1[C@@H](O)[C@H](O)[C@@H](CO)O[C@@H]1O	1.01 (inactive)
O=c1cc(-c2ccc(O)cc2)oc2ccc(O)cc12	0.971 (inactive)
CC1=CCc2c(cc3oc(C)cc(=O)c3c2O)OC1	0.984 (inactive)
O=C1c2c(O)ccc(O)c2C(=O)c2c(NCCNCCO)ccc(NCCNCCO)c21	0.855 (active)

====

test: chemical genetic growth profiling, strain panel (AID 1159580);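 note: tested at 20 µM; growth read once vehicle control cultures reached saturation at 30 °C; 1 = growth at the plate median or of vehicle wells; lower values mean less growth of the strain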; conditions: S. cerevisiae deletion strains, growth OD, locus YDR477W, strain SNF1, hits give low values
Hit rate of the full screen: of about 5,500 compounds, about 2,000 (36%) were called active. Roughly 18% stayed inconclusive and do not appear here. The list shows a part of the results.
Doc: threshold 0.9 (exclusive). Items with normalized growth beneath it return met; others return not met.

In [3]: df
Out[3]:
                                    compound    group
 0  CCn1nc(C)cc1-c1nnc(Sc2ncc([N+](=O)[O-])s2)n1C  not met
 1    O=C(NCc1cccs1)c1csc(Cc2c(Cl)cccc2Cl)n1  not met
 2  O=C1Nc2ccccc2/C1=N/N=C\c1cc(Br)cc(Br)c1O      met
 3  C/C(=N/Nc1nc(C(C)(C)C)cs1)c1ccc(Cl)c(Cl)c1  not met
 4  CC(C)(C)c1cc2nc(C(F)(F)F)cc(NNC(=O)c3ccc(Cl)cc3)n2n1  not met
 5  O=C(NNC(=O)c1csc(-c2cccs2)n1)c1ccc(C(F)(F)F)cc1      met
 6      CC(C)(C)c1csc(NC(=O)Nc2ccc(Cl)cc2)n1      met
 7  N#Cc1c(Br)cnn1Cc1cc(C(F)(F)F)cc(C(F)(F)F)c1  not met
 8         C#Cc1cccc(N=Cc2cc(Cl)cc(Br)c2O)c1      met
 9  Cc1cc(C(=O)N(c2ccccc2)C(C)C2CC2)c(Cl)cc1Cl (stereo not drawn)  not met
10  O=C1c2ccccc2O[C@@H](c2ccccc2)[C@@H]1NC1CCCCC1      met
11   Cc1ccc(C(O)(c2ccccc2)c2ccccc2)c2ccccc12  not met
12  N/C(CSc1ncccc1C(F)(F)F)=N/OC(=O)Nc1cccc(Cl)c1      met
13     N#CCCCCOc1ccc2c(=O)cc(-c3ccccc3)oc2c1  not met
14   Cc1nc(-c2ccc(C(F)(F)F)cn2)[nH]c(=O)c1Cl      met
15     CC(C)(C)c1csc(NC(=O)c2ccc(Cl)cc2Cl)n1  not met
16            Clc1ccc(-c2csc(Nc3ccccc3)n2)s1      met
17  N/C(CSc1ccc(Cl)cc1)=N/OC(=O)c1ccc(C(F)(F)F)cc1      met
18  COc1ccc(C2CC(c3ccccc3)=Nc3ccccc3S2)cc1OC (stereo not drawn)  not met
19  COc1cc(NC(=S)Nc2ccccc2OC(F)(F)F)cc(C(F)(F)F)c1  not met
20  O=C1c2ccccc2O[C@@H](c2ccccc2)[C@@H]1NCc1ccccc1      met

Sourced from PubChem BioAssay AID1159580
